Source listed as PubChem BioAssay.

# method_summary: binders from COS7 lysate, DM2A8 probe, primary screen, torsin A project, cell lysate, small-molecule microarray, fluorescence 635/667 (AID 1065)
# test_conditions: higher = more signal, COS7 lysate expressing mutant human TOR1A
measured_parameter: composite z-score

compound="O=C1OCC=C[C@H]2OC34C=CCN(Cc5ccccc5)C(=O)[C@H]3N(CCCO)C(=O)[C@@H]4[C@@H]12 (some centres not stated)" observed_value=-0.815
compound=C=CCN1C(=O)[C@@]2(O[C@@H](CCO)[C@H]([Si](C)(C)c3ccc(OC)cc3)[C@H]2C)c2cc(N3C(=O)COc4ccccc43)ccc21 observed_value=0.28
compound=O=c1cccc(-c2cccc3ccccc23)o1 observed_value=-0.378
compound=C=C[C@H](C)[C@H](OC(=O)Nc1ccc(OC)cc1)c1ccc(O)c2ccccc12 observed_value=-0.0826
compound="CC(c1ccccc1)C(O)C1C=CC2C(=O)N(Cc3ccccc3)C(=O)C2N1n1cnnc1 (configuration not stated)" observed_value=0.327
compound=O=c1cccc(-c2ccc3ccccc3c2)o1 observed_value=-0.0452
compound=COc1ccc([Si](C)(C)[C@@H]2[C@@H](CCn3cc([C@H](O)c4ccccc4)nn3)O[C@]3(C(=O)N(C)c4ccccc43)[C@H]2C)cc1 observed_value=0.356
compound=C[n+]1ccc2ccc(O)cc2c1 observed_value=1.46
compound="CCN(CC)c1ccc(N2CC=CC34O[C@@H]5C=CCCOC(=O)C5[C@H]3C(=O)N(CCCO)[C@@H]4C2=O)cc1 (some centres not stated)" observed_value=-0.288
compound=CO[C@H]1O[C@H](CO)[C@@H](OC(=O)Nc2cccc(F)c2)[C@H](OC(=O)Nc2ccccc2-c2ccccc2)[C@@H]1OC(=O)Nc1ccccc1-c1ccccc1 observed_value=0.568
compound=O=c1cccc(-c2ccccc2)o1 observed_value=-0.313
compound=C=CC[C@]1(C(=O)O)N=C(c2ccc(OCCCO)cc2)O[C@H]1c1ccccc1CN=[N+]=[N-] observed_value=-0.43
compound=CCCNC(=O)[C@@]1(C)c2ccccc2C(=O)N(Cc2ccc(OC(F)(F)F)cc2)[C@H]1c1ccc(CO)cc1 observed_value=-0.0811
compound=O=C1O[C@H](c2ccccc2)[C@H](c2ccccc2)N2[C@H]1[C@@H](C(=O)N1CCCCCCC1)[C@]1(C(=O)Nc3ccc(C#CC4=CCCCC4)cc31)[C@H]2c1ccc(O)cc1 observed_value=2.87
compound=Cc1ccc(S[C@]2(C(=O)NCC(F)(F)F)CC(=O)N(C3Cc4ccccc4C3)[C@@H]2c2ccc(CO)cc2I)cc1 observed_value=0.0708
compound=COC(=O)[C@@]1(Cc2ccccc2)[C@H]2c3cc(C(=O)N(C)C)n(Cc4ccccc4)c3C[C@H]2CN1C(=O)c1ccccc1 observed_value=-0.705
compound=O=C1c2ccccc2[C@](Cc2ccccc2I)(C(=O)O)[C@H](c2ccc(CO)cc2)N1Cc1ccccc1C(F)(F)F observed_value=0.17
